# system: Beta-3 adrenergic receptor (Canis lupus familiaris)
# Sequence (O02662 whole entry): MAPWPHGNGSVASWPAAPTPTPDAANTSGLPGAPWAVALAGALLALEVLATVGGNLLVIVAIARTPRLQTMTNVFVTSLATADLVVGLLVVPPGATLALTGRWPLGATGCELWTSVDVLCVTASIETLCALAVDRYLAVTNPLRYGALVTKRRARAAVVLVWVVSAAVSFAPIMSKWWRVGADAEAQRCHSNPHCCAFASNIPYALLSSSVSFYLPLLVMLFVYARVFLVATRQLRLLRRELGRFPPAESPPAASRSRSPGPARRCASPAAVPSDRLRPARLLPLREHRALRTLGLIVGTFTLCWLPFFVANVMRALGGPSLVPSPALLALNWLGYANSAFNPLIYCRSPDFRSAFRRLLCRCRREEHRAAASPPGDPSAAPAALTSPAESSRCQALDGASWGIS
# protocol_text: Agonist activity at dog recombinant beta3 adrenergic receptor expressed in CHO cells assessed as cAMP accumulation by enzyme immunoassay
# Assay type: functional, cell-based
# particulars: read-out: EC50
Please use class 1 for EC50 under 1 nM and class 0 for everything else, ties included.

Q: Lab log: compare recorded EC50 with 1 nM; is it strictly lower for CS(=O)(=O)NC(=O)c1ccc(-c2ccc(CCNC[C@H](O)c3ccccc3)cc2)cc1Oc1ccccc1.Cl ?
Ans: class 0

Q: EC50 under 1 nM? Item: CS(=O)(=O)NC(=O)c1ccc(-c2ccc(CCNC[C@H](O)c3cccnc3)cc2)cc1OC1CCCCC1.Cl.Cl
Ans: class 0

Q: hey, is EC50 for CC(C)Sc1cc(-c2ccc(CCNC[C@H](O)c3ccccc3)cc2)ccc1C(=O)O lower than 1 nM or not?
Ans: class 0

Q: For this compound, is EC50 lower than 1 nM? CC(C)Cc1cc(-c2ccc(CCNC[C@H](O)c3ccccc3)cc2)ccc1C(=O)O
Ans: class 0

Q: Identify whether the compound CC(C)Oc1cc(-c2ccc(CCNC[C@H](O)c3ccccc3)cc2)ccc1C(=O)NS(C)(=O)=O.Cl records EC50 below 1 nM.
Ans: class 0

Q: Dear colleague, could you confirm whether EC50 of CC(C)Cc1cc(-c2ccc(CCNC[C@H](O)c3ccccc3)cc2)ccc1C(=O)NS(C)(=O)=O.Cl falls below 1 nM? Thanks.
Ans: class 1

Q: Input CS(=O)(=O)NC(=O)c1ccc(-c2ccc(CCNC[C@H](O)c3ccccc3)cc2)cc1OC1CCCCC1.Cl ; condition: EC50 strictly below 1 nM. Does it hold?
Ans: class 1

Q: Answer whether the compound CC(C)Nc1cc(-c2ccc(CCNC[C@H](O)c3ccccc3)cc2)ccc1C(=O)NS(C)(=O)=O.Cl.Cl has EC50 strictly less than 1 nM
Ans: class 0

Q: Identify whether the compound CC(C)Sc1cc(-c2ccc(CCNC[C@H](O)c3ccccc3)cc2)ccc1C(=O)NS(C)(=O)=O.Cl records EC50 below 1 nM.
Ans: class 1
